System: MCF7
assay.name: Growth inhibition of human MCF7 cells at 1 uM after 48 hrs by sulforhodamine B assay
Type: functional, cell-based
Active and inactive are the calls of the source. The rule behind the calls is not given here.
outcome.measure: growth inhibition (GI)

Previously resolved entries follow.
Nc1ncnc2c1N=C1c3ccccc3CCC1C(c1ccc(Cl)cc1)N2 (stereo unspecified) ... Active
Nc1ncnc2c1N=C1c3ccccc3CCC1C(c1ccccc1)N2 (stereo unspecified) ... Active
Nc1ncnc2c1N=C1c3ccccc3CCC1C(c1ccc(F)cc1)N2 (stereo unspecified) ... Active
Nc1nc(N)c2c(n1)NC(c1ccc(F)cc1)C1CCc3ccccc3C1=N2 (stereo unspecified) ... inactive
Nc1nc(N)c2c(n1)NC(c1ccc(Cl)cc1)C1CCc3ccccc3C1=N2 (stereo unspecified) ... inactive

In the following, a different compound is considered.
Qu. // fetch MCF7 growth inhibition (GI) for Nc1nc(N)c2c(n1)NC(c1ccccc1)C1CCc3ccccc3C1=N2 (stereo unspecified)
Ans. inactive

Where do these numbers come from? They come from ChEMBL document CHEMBL1177848.
